Reported IC90 is given for each of the following compounds.
Tested on: Plasmodium berghei
procedure_text: Luciferase/luciferin-expressing antifolate-resistant parasites were used to infect a culture of HepG2 cells that were pre-incubated with compounds. Infected hepatocytes emit light due to the luciferase reaction. Assay results are presented as the percent inhibition of light emission compared to control. […]
Assay type: functional
settings: sporozoite, read-out: LUCIFERASE INFECTION ASSAY - IC90
recorded_metric: IC90

{"columns": ["line_notation", "recorded_metric", "result"],
 "data": [
  ["Cc1cccnc1NC(=O)c1ccc(Cl)c(S(=O)(=O)N(Cc2ccccc2)c2ccccc2)c1", "IC90", "> 10 µM"],
  ["COc1ccc(NS(=O)(=O)c2cccc(C(=O)Nc3ncc(C)s3)c2)cc1Br", "IC90", "4.59 µM"],
  ["OCc1ccc(-c2cnc3cnc(-c4cccc(F)c4)cn23)cc1", "IC90", "> 10.3 µM"],
  ["c1ccc2c(CSCCC34CC5CC(CC(C5)C3)C4)cccc2c1", "IC90", "> 10 µM"]
]}

----------
Test system: Plasmodium berghei
procedure_text: Luciferase/luciferin-expressing antifolate-resistant parasites were used to infect a culture of HepG2 cells that were pre-incubated with compounds. Infected hepatocytes emit light due to the luciferase reaction. Assay results are presented as the percent inhibition of light emission compared to control. […]
Type: functional
settings: sporozoite, FFLUC_HILL_SLOPE 30.3, FFLUC_R_SQUARED 0.617, PBLUC_HILL_SLOPE 4.64, PBLUC_R_SQUARED 0.334, read-out: LUCIFERASE INFECTION ASSAY - IC50

{"columns": ["line_notation", "IC50"],
 "data": [
  ["CC(C)N(c1ccccc1)c1ccc(NC(=O)COC(=O)c2ccc(Cl)c(S(=O)(=O)N(Cc3ccccc3)c3ccc(Cl)cc3)c2)cc1", "9.19 µM"]
]}

----------
Tested on: Plasmodium berghei
procedure_text: Luciferase/luciferin-expressing antifolate-resistant parasites were used to infect a culture of HepG2 cells that were pre-incubated with compounds. Infected hepatocytes emit light due to the luciferase reaction. Assay results are presented as the percent inhibition of light emission compared to control. […]
Type: functional
settings: sporozoite, PBLUC_HILL_SLOPE 12, PBLUC_R_SQUARED 0.586, read-out: LUCIFERASE INFECTION ASSAY - IC50

{"columns": ["line_notation", "IC50 (µM)"],
 "data": [
  ["Cc1ccc(NC(=O)c2cnn(-c3cccc(Cl)c3)c2C(C)C)nc1", 3.58]
]}

----------
Tested on: Plasmodium berghei
procedure_text: Luciferase/luciferin-expressing antifolate-resistant parasites were used to infect a culture of HepG2 cells that were pre-incubated with compounds. Infected hepatocytes emit light due to the luciferase reaction. Assay results are presented as the percent inhibition of light emission compared to control. […]
Assay type: functional
settings: sporozoite, HEPG2TOX_HILL_SLOPE 3.65, HEPG2TOX_R_SQUARED 0.956, PBLUC_HILL_SLOPE 5.3, PBLUC_R_SQUARED 0.515, read-out: LUCIFERASE INFECTION ASSAY - IC50

{"columns": ["line_notation", "IC50"],
 "data": [
  ["CCOc1cc2cc(C(=O)c3cc(C)ccc3O)cnc2cc1OC", "6.19 µM"]
]}

----------
System: Plasmodium berghei
procedure_text: Luciferase/luciferin-expressing antifolate-resistant parasites were used to infect a culture of HepG2 cells that were pre-incubated with compounds. Infected hepatocytes emit light due to the luciferase reaction. Assay results are presented as the percent inhibition of light emission compared to control. […]
Format: functional
settings: sporozoite, FFLUC_HILL_SLOPE 16.6, FFLUC_R_SQUARED 0.0411, PBLUC_HILL_SLOPE 0.772, PBLUC_R_SQUARED 0.177, read-out: LUCIFERASE INFECTION ASSAY - IC50
recorded_metric: IC50

{"columns": ["line_notation", "result"],
 "data": [
  ["Cc1ccccc1N1C(=O)c2ccccc2C(Cc2ccc(C#N)cc2)(Cc2ccc(C#N)cc2)C1=O", "> 10 µM"]
]}

----------
Test system: Plasmodium berghei
procedure_text: Luciferase/luciferin-expressing antifolate-resistant parasites were used to infect a culture of HepG2 cells that were pre-incubated with compounds. Infected hepatocytes emit light due to the luciferase reaction. Assay results are presented as the percent inhibition of light emission compared to control. […]
Format: functional
settings: sporozoite, FFLUC_HILL_SLOPE 10.4, FFLUC_R_SQUARED 0.468, read-out: LUCIFERASE INFECTION ASSAY - IC50
pIC50: −log10 of the molar value.

{"columns": ["compound", "pIC50"],
 "data": [
  ["Cc1ccc(C(=O)C(c2ccc(C)cc2)N2C(=O)NC(C)(c3ccccc3)C2=O)cc1 (stereo unspecified)", "< 5.00"]
]}

----------
Test system: Plasmodium berghei
procedure_text: Luciferase/luciferin-expressing antifolate-resistant parasites were used to infect a culture of HepG2 cells that were pre-incubated with compounds. Infected hepatocytes emit light due to the luciferase reaction. Assay results are presented as the percent inhibition of light emission compared to control. […]
Assay type: functional
settings: sporozoite, HEPG2TOX_HILL_SLOPE 14.6, HEPG2TOX_R_SQUARED 0.71, PBLUC_HILL_SLOPE 18.6, PBLUC_R_SQUARED 0.967, read-out: LUCIFERASE INFECTION ASSAY - IC50

{"columns": ["line_notation", "unit_name", "IC50"],
 "data": [
  ["CCN(c1ccc(NC(=O)c2ccc3c(c2)NC(=O)CS3)cc1)C(C)C", "µM", 3.27]
]}

----------
Test system: Plasmodium berghei
procedure_text: Luciferase/luciferin-expressing antifolate-resistant parasites were used to infect a culture of HepG2 cells that were pre-incubated with compounds. Infected hepatocytes emit light due to the luciferase reaction. Assay results are presented as the percent inhibition of light emission compared to control. […]
Assay type: functional
settings: sporozoite, PBLUC_HILL_SLOPE 2.79, PBLUC_R_SQUARED 0.449, read-out: LUCIFERASE INFECTION ASSAY - IC50

{"columns": ["molecule", "unit_name", "IC50"],
 "data": [
  ["Cc1cc(C(=O)Cn2c(C(C)O)nc3ccccc32)c(C)n1-c1ccc(F)c(Cl)c1 (stereo unspecified)", "µM", 7.26]
]}

----------
Test system: Plasmodium berghei
procedure_text: Luciferase/luciferin-expressing antifolate-resistant parasites were used to infect a culture of HepG2 cells that were pre-incubated with compounds. Infected hepatocytes emit light due to the luciferase reaction. Assay results are presented as the percent inhibition of light emission compared to control. […]
Format: functional
settings: sporozoite, HEPG2TOX_HILL_SLOPE 1.03, HEPG2TOX_R_SQUARED 0.779, PBLUC_HILL_SLOPE 16.5, PBLUC_R_SQUARED 0.198, read-out: LUCIFERASE INFECTION ASSAY - IC50
recorded_metric: IC50 (µM)

{"columns": ["line_notation", "assayed_system", "readout_number"],
 "data": [
  ["c1ccn2c(Sc3ncnc4ccsc34)nnc2c1", "Plasmodium berghei", 9.21]
]}

----------
Test system: Plasmodium berghei
procedure_text: Luciferase/luciferin-expressing antifolate-resistant parasites were used to infect a culture of HepG2 cells that were pre-incubated with compounds. Infected hepatocytes emit light due to the luciferase reaction. Assay results are presented as the percent inhibition of light emission compared to control. […]
Format: functional
settings: sporozoite, FFLUC_HILL_SLOPE 1.45, FFLUC_R_SQUARED 0.668, PBLUC_HILL_SLOPE 3.96, PBLUC_R_SQUARED 0.503, read-out: LUCIFERASE INFECTION ASSAY - IC50

{"columns": ["line_notation", "assayed_system", "unit_name", "IC50"],
 "data": [
  ["O=C1C=CC(=O)N1c1ccc(Cl)cc1Br", "Plasmodium berghei", "µM", 4.99]
]}

----------
System: Plasmodium berghei
procedure_text: Luciferase/luciferin-expressing antifolate-resistant parasites were used to infect a culture of HepG2 cells that were pre-incubated with compounds. Infected hepatocytes emit light due to the luciferase reaction. Assay results are presented as the percent inhibition of light emission compared to control. […]
Type: functional
settings: sporozoite, HEPG2TOX_HILL_SLOPE 12.1, HEPG2TOX_R_SQUARED 0.84, PBLUC_HILL_SLOPE 0.731, PBLUC_R_SQUARED 0.558, read-out: LUCIFERASE INFECTION ASSAY - IC50
pIC50: −log10 of the molar value.

{"columns": ["line_notation", "assayed_system", "pIC50"],
 "data": [
  ["O=C(CSc1ncc(C(F)(F)F)cc1C(F)(F)F)Nc1cc(Cl)cc(Cl)c1", "Plasmodium berghei", 5.82]
]}

----------
System: Plasmodium berghei
procedure_text: Luciferase/luciferin-expressing antifolate-resistant parasites were used to infect a culture of HepG2 cells that were pre-incubated with compounds. Infected hepatocytes emit light due to the luciferase reaction. Assay results are presented as the percent inhibition of light emission compared to control. […]
Assay type: functional
settings: sporozoite, PBLUC_HILL_SLOPE 1.11, PBLUC_R_SQUARED 0.152, read-out: LUCIFERASE INFECTION ASSAY - IC50

{"columns": ["line_notation", "unit_name", "IC50"],
 "data": [
  ["O=C(N/N=C/c1ccc(F)cc1)c1ccc[n+]([O-])c1", "µM", 5.8]
]}
